The measured values listed here are drawn from patent US11850237B2.

test system: MDCK cells; assay: Toxicity / cell viability by MTT in uninfected MDCK cells; type: cell-based, canine; conditions: MDCK cells, MTT
Measure: Toxicity LD50 (MTT)

Some solved cases for reference:
Compound: CCCCS(=O)(=O)c1cnc(NC(=O)c2ccccc2OC(C)=O)s1
Measure: Toxicity LD50 (MTT)
Result: >50 µg/mL

Compound: O=C(Nc1ncc([N+](=O)[O-])s1)c1ccccc1[O-].[Na+] [Compound 3, tizoxanide sodium salt]
Measure: Toxicity LD50 (MTT)
Result: >50 µg/mL

Compound: CC(=O)Oc1ccccc1C(=O)Nc1nc(S(C)(=O)=O)cs1
Measure: Toxicity LD50 (MTT)
Result: >50 µg/mL

Compound: CC(=O)Oc1ccccc1C(=O)Nc1nc(S(=O)(=O)C(C)C)cs1
Measure: Toxicity LD50 (MTT)
Result: >50 µg/mL

Turning to the following compound.
Q: Look up Toxicity LD50 (MTT) with MDCK cells for this compound: CC(=O)Oc1ccccc1C(=O)Nc1ncc(S(=O)(=O)c2ccc([N+](=O)[O-])cc2)s1
Result: 30 µg/mL
